Data origin, for the record: ChEMBL document CHEMBL4396973

target: Kallikrein-1 (Homo sapiens); test: Inhibition of human recombinant N-terminal His-tagged and enterokinase cleavage site-fused KLK1 (19 to 262 residues) expressed in baculovirus infected Sf9 insect cells using R110 labelled GSK3162232A as substrate measured at 30 secs interval for 5 mins by FLINT assay
Sequence (P06870 whole entry, the tested form may be a part): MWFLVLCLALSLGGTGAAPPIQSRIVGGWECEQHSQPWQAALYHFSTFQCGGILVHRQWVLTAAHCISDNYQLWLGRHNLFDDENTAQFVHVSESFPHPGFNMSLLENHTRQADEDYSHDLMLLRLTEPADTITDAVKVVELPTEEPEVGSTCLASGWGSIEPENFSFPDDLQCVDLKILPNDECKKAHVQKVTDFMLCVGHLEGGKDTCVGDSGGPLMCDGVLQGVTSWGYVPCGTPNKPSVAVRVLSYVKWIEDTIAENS
log10(IC50) values for the compounds below.
Quantity name: log10(IC50) (log10 of the value in µM)

{"Compound": "N=C(N)c1ccc(COc2ccc3c(c2)B(O)OC3)cc1", "Reading": 1.60}
{"Compound": "N=C(N)c1ccc(C2OB(O)c3ccccc32)cc1 (racemic)", "Reading": 1.90}
{"Compound": "N=C(N)c1ccc(C2Cc3ccccc3B(O)O2)cc1 (racemic)", "Reading": 1.00}
{"Compound": "N=C(N)c1ccc([C@@H]2Cc3ccc(C(F)(F)F)cc3B(O)O2)cc1OCc1cccnc1", "Reading": 0.30}
{"Compound": "N=C(N)c1ccc(C2Cc3ccc(F)cc3B(O)O2)cc1OCc1cccnc1 (racemic)", "Reading": 0.60}
{"Compound": "N=C(N)c1ccc(OCc2ccc3c(c2)B(O)OC3)cc1", "Reading": 1.00}
{"Compound": "N=C(N)c1ccc(C2Cc3ccccc3B(O)O2)cc1OCc1cccnc1 (racemic)", "Reading": 1.50}
